The measurements presented in this section are drawn from the supplement of paper PMC6555819.

tested on: THRa:RXRa (NR concentration 90 nM, RXRa partner concentration 90 nM); test: PBM binding z-score (relative to random genomic background probes); higher = stronger binding; sequences stand for … in GC…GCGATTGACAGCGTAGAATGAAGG
Respond with T for PBM binding z-score values of 4 and above, F for values below.

1. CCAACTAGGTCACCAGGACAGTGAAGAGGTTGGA :: F
2. CATAGTTGGTCAAGGTCACACACGCTATAGGTAC :: T
3. TCGAGTAGGTTACGGGGGCATTGAGGGATGAAGA :: F
4. GATAAAGGGTCAGCTAGAGGCCAGAGTATGGAAA :: F
5. CAAACTAGGTCACCGGGAGGTCAAAGTCCGCATG :: T
6. CAAACTAGGTCACGAAAGGTCAAAGTTGAATGAC :: T
7. TAGCCTAGCTCATTCAGGGGCCAGTATAGAAAGC :: F
8. CAAACTAGGTCAAAGGTCAAAATCGAGCCAACCA :: T
9. CCGAGTAGGTTACGAGGGGGTATTCAGTGCGAAT :: F
10. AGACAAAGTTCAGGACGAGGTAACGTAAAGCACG :: F
11. CGAAATAGGTCAAAGGACAGTGAAAGGCGACGTA :: F
12. TCGAGTAGGTTCCGGGGGCATTCAGGGATGAAGA :: F

* * *

system: LXRb:RXRa (NR concentration 270 nM, RXRa partner concentration 90 nM); experiment: PBM binding z-score (relative to random genomic background probes); higher = stronger binding; sequences stand for … in GC…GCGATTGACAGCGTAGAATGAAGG
observable: PBM binding z-score

1) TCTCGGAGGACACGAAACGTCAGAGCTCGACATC :: -0.347
2) AGTCAAAGTTCAGGACGAGATAACGTAAAGCACG :: 1.81
3) CATACAGGGTCCGCTAGGCCAGAGTAGGGACGGC :: -0.869
4) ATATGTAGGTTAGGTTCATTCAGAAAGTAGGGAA :: 2.34
5) ATGTGTAGGTTAGGGTCATTCAGAAAGTAGGGAA :: 4.76
6) CTATGTAGGTTAAGGGGGTCATTCTGTTTGAAAG :: 6.33
7) CGAACTAGGTCACCACGACAGTGAAGAGGTTGGA :: 1.87
8) CTATGTAGGTTAAGGGGGTCATTCAATTTGAAAG :: 6.26
9) CCGACTGGGGCAAAGGTTACCATGCTCAGTACGA :: 1.97
10) CCGAGTAGGTTACGAGGGTGCATTCAGTGCGAAT :: 2.43
11) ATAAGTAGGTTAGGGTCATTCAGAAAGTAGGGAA :: 4.53
12) CTATGTAGGTTAAGGGGGTAATTCAGTTTGAAAG :: 4.23
13) ATATGTAGGTTAAGGTCATTCAGAAAGTAGGGAA :: 4.59
14) CAAACTAGGTCACGAAAGGTCAAAGTGGAATGAC :: 7.19
15) AATACAGGGTCACTAGGTCAGAGTAGGTACGAAT :: 4.43
16) ATATGTAGGTTATGGTCATTCAGAAAGTAGGGAA :: 1.37
17) ATCGTAAGGTCGTGAGGTGAGTATACAGAAAGGC :: 2.14
18) CTATGTAGGGTAAGGGGGTCATTCAGTTTGAAAG :: 6.36
19) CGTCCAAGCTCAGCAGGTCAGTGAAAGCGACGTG :: 0.048
20) CCGAGTAGGTTACGAGGAGGCATTCAGTGCGAAT :: 0.864
21) CTATGTAGGTTAAGGGGGTCAATCAGTTTGAAAG :: 5.67
22) CCGAGTAGGTTACGAGGGGGCATTTAGTGCGAAT :: 6.59
23) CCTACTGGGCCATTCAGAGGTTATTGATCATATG :: 0.664
24) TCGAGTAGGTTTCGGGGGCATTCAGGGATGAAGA :: 4.48
25) ATATGAAGGTTATCGGGTCATTCAGTTTGCGCAT :: 3.02
26) CTATGTAGGTTAAGGGGGCCATTCAGTTTGAAAG :: 4.2
27) CCGAGCAGGTTACGAGGGGGCATTCAGTGCGAAT :: 6.07
28) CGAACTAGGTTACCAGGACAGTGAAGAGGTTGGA :: -0.238
29) GCTTACGGGTCAAAGGTTACAGCATGAATAGAAT :: 6.05
30) CGAACTAGGTCACCGGGACAGTGAAGAGGTTGGA :: 1.89
31) CTCCAAAGGTCGGTTGAGGTGAGTATACGGATAA :: 1.71
32) TATACAGGGTCTAAGGCCAGAGTACGAATGTCGA :: 0.157
33) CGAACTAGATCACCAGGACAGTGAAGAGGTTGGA :: -0.702
34) CAAACTAGGTCACAGAGGTCGAAGTCCGTGCGTA :: 3.62
35) TAGCCTAGGTTATGCGGGCCAGTATAGTGTCGGC :: -0.71
36) CCGTACGGGTCAAGGTTATAGCACGGGTGGTACG :: 3.11
37) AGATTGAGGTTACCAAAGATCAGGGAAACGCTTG :: 3.17
38) CTATGTAGGTTAAGGGGGTGATTCAGTTTGAAAG :: 3.83
39) CGTCCAAGGTCAAAGGTCAGGGAAGAGATGACGG :: 6.96
40) AGTCAAAGTTCACTAGGCAACGTAAGATTCAGCT :: 2.89
41) CATACAGGGTAAGCTAGGCCAGAGTAGGGACGGC :: -0.589
42) TTACCGAGGTGAAAGGTCGTTGATGCACGCCTTG :: 3.53
43) CAAACTAGGTCAAAGGTCAAAGTTGAGCCAACCA :: 7.42
44) CCTTACGGGTCAGTGACAGGTTATAGCATTTGGA :: 2.96
45) TTATCAAGGTGAAAGGTCGTTGATGCACGCCTTG :: 2.84
46) CTATGTAGGTAAAGGGGGTCATTCAGTTTGAAAG :: 5.98
47) ATATGTAGGTTAGGGACATTCAGAAAGTAGGGAA :: 0.442
48) ATCTGTAGGTTAGGGTCATTCAGAAAGTAGGGAA :: 4.44
49) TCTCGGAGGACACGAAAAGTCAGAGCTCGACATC :: -0.0523
50) CGAACTAGCTCAAAGGACAGTGAAAGGCGACGTA :: -0.766
51) CCTACTGGGTCATTCAGAGGTCATTGATCATATG :: 5.36
